TARGET ENTITY: human full length Hsp90 (Homo sapiens, UniProt P07900)
Construct: amino acid residues 1 to 732 of human Hsp90 (GenBank: BC121062.2); made in house; host or cells: E. coli BL21DE3 (pET15b)
MEASUREMENT DESCRIPTION: Fluorescence polarization Hsp90 competitive binding assay (GM-FITC displacement)
PROTOCOL CONDITIONS: Table 1; 50 nM Hsp90, 9 nM GM-FITC; read-out: Biochemical Potency IC50
Protocol: Hsp90 binding assays was performed generally according to the procedure described in J. Biomol. […] Hsp90 inhibitors were solubilized in DMSO at a stock concentration of 50 mM. […] Fluorescence polarization readings were taken in duplicate at excitation and emission wavelengths of 480 nm and 500 nm respectively. Specific binding was calculated by subtracting polarization values in the presence of Hsp90 from those in the absence of Hsp90. […]
PROPERTY MEASURED: pIC50
Give bare numbers, as −log10 of the molar value.

Study these solved cases before continuing.
compound="CCCN(Cc1ncc(C)c(OC)c1C)c1cc(Cl)nc(N)n1 [SBI-0639350]" target_entity="human full length Hsp90 (Homo sapiens, UniProt P07900)" value_measured=5.96
compound="COc1c(C)cnc(CN(C(=O)C(C)C)c2cc(Cl)nc(N)n2)c1C [SBI-0640644]" target_entity="human full length Hsp90 (Homo sapiens, UniProt P07900)" value_measured=4.86
compound="CCCC(=O)N(Cc1ncc(C)c(OC)c1C)c1cc(Cl)nc(N)n1 [SBI-0640645]" target_entity="human full length Hsp90 (Homo sapiens, UniProt P07900)" value_measured=4.52
compound="COc1c(C)cnc(CN(CCc2ccc(Cl)cc2)c2cc(Cl)nc(N)n2)c1C [SBI-0640608]" target_entity="human full length Hsp90 (Homo sapiens, UniProt P07900)" value_measured=6.51
compound="COc1c(C)cnc(CN(CCCO)c2cc(Cl)nc(N)n2)c1C [SBI-0639349]" target_entity="human full length Hsp90 (Homo sapiens, UniProt P07900)" value_measured=5.86

Below are 8 compounds. Give each one its pIC50.
1. COc1c(C)cnc(CN(CCN2CCOCC2)c2cc(Cl)nc(N)n2)c1C [SBI-0640611]
2. CCCCCCN(Cc1ncc(C)c(OC)c1C)c1cc(Cl)nc(N)n1 [SBI-0640609]
3. CCCCN(Cc1ncc(C)c(OC)c1C)c1cc(Cl)nc(N)n1 [SBI-0639354]
4. COc1c(C)cnc(CN(CCc2ccc3c(c2)OCO3)c2cc(Cl)nc(N)n2)c1C [SBI-0640607]
5. Cc1cnc(CN(CCc2ccc(Cl)cc2)c2cc(Cl)nc(N)n2)c(C)c1Cl [SBI-0640610]
6. COc1c(C)cnc(CN(CCc2ccccc2)c2cc(Cl)nc(N)n2)c1C [SBI-0639353]
7. COc1c(C)cnc(CN(C(=O)CC(C)(C)C)c2cc(Cl)nc(N)n2)c1C [SBI-0639901]
8. Cc1cnc(CN(C)c2cc(Cl)nc(N)n2)c(C)c1Cl [SBI-0639899]

Result:
5.77
6.41
6.14
6.43
6.71
6.59
4.52
5.67

Below are 2 compounds. Give each one its pIC50.
1. COc1c(C)cnc(CN(CCc2cccc(Br)c2)c2cc(Cl)nc(N)n2)c1C [SBI-0640613]
2. C=CCN(Cc1ncc(C)c(OC)c1C)c1cc(Cl)nc(N)n1 [SBI-0639355]

Result:
[7.01, 5.54]
